subject of test: TRAF7-pY275mod
protocol notes: fluorescence polarization
Kindly state Kd for each of the entries shown.
One number for each entry, in nM.

T8I S10A K15L (designed binder) MKIEEHHHHHHSSGRENLYFQGGAAQPAAPVDSIQAEEWYFGKLGRKDAERQLLSFGNPRGTFLIRESETIKGAYALSIRDWDDMKGDHVKHYLIRKLDNGGYYITTRAQFETLQQLVQHYSERAAGLSSRLVVPSHKGAAA : 330
S10V K15L (designed binder) MKIEEHHHHHHSSGRENLYFQGGAAQPAAPVDSIQAEEWYFGKLGRKDAERQLLSFGNPRGTFLIRESETTKGAYVLSIRDWDDMKGDHVKHYLIRKLDNGGYYITTRAQFETLQQLVQHYSERAAGLSSRLVVPSHKGAAA : 2100
T8V S10A K15I (designed binder) MKIEEHHHHHHSSGRENLYFQGGAAQPAAPVDSIQAEEWYFGKLGRKDAERQLLSFGNPRGTFLIRESETVKGAYALSIRDWDDMKGDHVKHYIIRKLDNGGYYITTRAQFETLQQLVQHYSERAAGLSSRLVVPSHKGAAA : 450

Could you now look at the following binder, please?
Q: Request the reported Kd associated with ΔT8 S10A K15L (designed binder) MKIEEHHHHHHSSGRENLYFQGGAAQPAAPVDSIQAEEWYFGKLGRKDAERQLLSFGNPRGTFLIRESETTKGAYSLSIRDWDDMKGDHVKHYKIRKLDNGGYYITTRAQFETLQQLVQHYSERAAGLSSRLVVPSHKGAAA
A: 2700
